Reference source for all entries: PubChem BioAssay (NCI)

Recorded measurements of TGI, one per entry
test system: KM12 colon; assay: NCI tumour cell line growth inhibition, 48 h

Recorded results for 2 molecules are shown here.
INSERT INTO measurements (molecule, measurement_type, test_value) VALUES
  ('NC1CC(Cl)c2c(Cl)sc(Cl)c21 (stereo unspecified)', 'TGI', '> 100 µM'),
  ('Nc1nc(N)c2c(n1)NC(c1ccc(F)cc1)C1CCc3ccccc3C1=N2 (stereo unspecified)', 'TGI', '17 µM');

In one line, give reported TGI of the entry C[C@]12CCC(=O)C(O)=C1CC[C@@H]1C2CC[C@]2(C)Nc3c(cnn3-c3ccccc3)CC12 (stereo partly specified) .
> 100 µM

In one line, give reported TGI of the entry COc1cc(NC(=O)CSc2nc3ccc(C)cc3c(=O)n2Cc2ccccc2)cc(OC)c1OC .
> 100 µM

In one line, give reported TGI of the entry Nc1ccc(CCSSCCc2ccc(N)cc2)cc1 .
> 100 µM

In one line, give reported TGI of the entry C[C@]12C[C@@H](c3ccccc3)Nc3ccccc3N1C(c1ccccc1)=NO2 .
> 100 µM

----------
system: DMS 273 small cell lung; experiment: NCI tumour cell line growth inhibition, 48 h
Measurement Type: TGI

INSERT INTO results (compound, tested_on, measurement_type, test_value) VALUES
  ('c1ccc2cc3[s+]snc3cc2c1', 'DMS 273 small cell lung', 'TGI', '> 100 µM'),
  ('C1CSC(=[N+]2CC[N+](=C3SCCS3)CC2)S1', 'DMS 273 small cell lung', 'TGI', '> 100 µM'),
  ('Cc1ccc(NC(=O)C(=O)CC(=O)c2c(C)n([O-])c3ccccc3[n+]2=O)cc1', 'DMS 273 small cell lung', 'TGI', '59.6 µM'),
  ('C[n+]1ccc(Nc2ccc(NC(=O)c3ccc(Nc4cc[n+](C)c5ccc([N+](=O)[O-])cc45)cc3[N+](=O)[O-])cc2)cc1', 'DMS 273 small cell lung', 'TGI', '> 100 µM'),
  ('O=C(c1ccccc1)[C@@H]1C[C@H](Sc2ccccc2)c2cc(Cl)ccc2N1', 'DMS 273 small cell lung', 'TGI', '84 µM'),
  ('Nc1nc2n[nH]nc2c(=O)[nH]1', 'DMS 273 small cell lung', 'TGI', '18.2 µM'),
  ('O=C(NC1C=Nc2ccc([N+](=O)[O-])cc2NC1=O)c1cc(Cl)cc([N+](=O)[O-])c1 (centres undefined)', 'DMS 273 small cell lung', 'TGI', '> 100 µM'),
  ('O=[N+]([O-])c1cc(C2SCc3nc4ccccc4n32)ccc1Cl (centres undefined)', 'DMS 273 small cell lung', 'TGI', '58 µM');

In one line, give reported TGI of the entry O=C(NCCCCCCNC(=O)OCCSCCn1cc(C(=O)NC(=O)OCc2ccccc2)c(=O)[nH]c1=O)OCCSCCn1cc(C(=O)NC(=O)OCc2ccccc2)c(=O)[nH]c1=O .
> 100 µM

----------
test system: M14 melanoma; assay: NCI tumour cell line growth inhibition, 48 h
Recorded measurements of GI50, one per entry

Recorded results for 5 molecules are shown here.
INSERT INTO results (molecule, test_value) VALUES
  ('Cc1cc(=O)[nH]c2cc3c(c4c(n3Cc3ccc(Cl)cc3Cl)CC(C)(C)CC4=O)c(O)c12', '71.3 µM'),
  ('CC(NCCC(=O)N(CCC(=O)N(CCC(=O)N(CCC(=O)N(CCC(=O)N(CCC(=O)N(CCC(=O)N(CCC(=O)N(CCC(=O)N(CCC(=O)O)[C@H](C)c1ccccc1)[C@H](C)c1ccccc1)[C@H](C)c1ccccc1)[C@H](C)c1ccccc1)[C@H](C)c1ccccc1)[C@H](C)c1ccccc1)[C@H](C)c1ccccc1)[C@H](C)c1ccccc1)[C@H](C)c1ccccc1)c1ccccc1 (stereo partly specified)', '1.77 µM'),
  ('O=C1C=CC[C@H](/C=C/c2ccccc2)O1', '5.85 µM'),
  ('NC1=C(c2nc(-c3ccccc3)cs2)C(c2ccc(Br)cc2)c2c(c3ccccc3oc2=O)O1 (stereo unspecified)', '90.1 µg/mL'),
  ('COc1ccc(NC(=O)COCCOCCNC[C@@H]2C(=O)O[C@H]3[C@H]2CC/C(COC(=O)OC/C2=C/CC[C@@]4(C)O[C@H]4[C@H]4OC(=O)[C@@H](CN(C)C)[C@@H]4CC2)=C\CC[C@@]2(C)O[C@@H]32)c(O)c1C(N)=O', '7.22 µM');

In one line, give reported GI50 of the entry COc1cc(/C=N/NC(=O)c2cnn3c2NC(c2ccccc2)C3)ccc1Oc1ccccc1 (stereo unspecified) .
0.761 µM

----------
Recorded measurements of TGI, one per entry
tested on: PC-3 prostate; assay: NCI tumour cell line growth inhibition, 48 h

In one line, give reported TGI of the entry CN(C)CC1C(=O)O[C@H]2[C@H]1CC/C(COC(=O)c1cc3ccccc3[nH]1)=C\CC[C@@]1(C)O[C@@H]21 (some centres undefined) .
5.86 µM

----------
Recorded measurements of GI50, one per entry
tested on: NCI/ADR-RES ovarian; test: NCI tumour cell line growth inhibition, 48 h

Recorded results for 3 compounds are shown here.
INSERT INTO assay_data (compound, tested_on, test_value) VALUES
  ('O=C(c1ccccc1)C(Br)C(Br)c1cccc([N+](=O)[O-])c1 (centres undefined)', 'NCI/ADR-RES ovarian', '2.88 µM'),
  ('COc1cc(Cl)cc(-c2nn(-c3cccc(NC(=O)Nc4cc(C(F)(F)F)cc(C(F)(F)F)c4)c3)cc2-c2ccncc2)c1', 'NCI/ADR-RES ovarian', '0.778 µM'),
  ('C=C1C(=O)O[C@H]2[C@H]1CCC(/C=N/c1ncc(Br)cc1N)=C\CC[C@@]1(C)O[C@@H]21', 'NCI/ADR-RES ovarian', '3.11 µM');

Report GI50 on NCI/ADR-RES ovarian for this entry: COC(=O)C1=C(C(=O)OC)SC(=C(Cl)C(=S)Nc2ccccc2O)S1
14.1 µM

Report GI50 on NCI/ADR-RES ovarian for this entry: O=C(Nc1ccc2[nH]c(=S)sc2c1)Nc1ccccc1F
21.9 µM

Report GI50 on NCI/ADR-RES ovarian for this entry: O=C1C=CC[C@H](/C=C/c2ccccc2)O1
3.12 µM

Report GI50 on NCI/ADR-RES ovarian for this entry: CCCCCCCCCCCCOC1C(C(COC2OC(C3COC(C)(C)O3)C3OC(C)(C)OC23)NC(=O)NS(=O)(=O)c2ccccc2)OC2OC(C)(C)OC21 (centres undefined)
7.18 µM

Report GI50 on NCI/ADR-RES ovarian for this entry: Oc1ccccc1C=Nc1nc(SCc2ccccc2)nc2[nH]ncc12
43.8 µM

Report GI50 on NCI/ADR-RES ovarian for this entry: COc1ccc(S(=O)(=O)Nc2cc(/C=C\c3cc(OC)c(OC)c(OC)c3)ccc2OC)cc1
0.0711 µM

----------
system: SF-295 CNS; assay: NCI tumour cell line growth inhibition, 48 h
Measurement Type: TGI

Recorded results for 3 molecules are shown here.
INSERT INTO measurements (molecule, test_value) VALUES
  ('CN1C(=O)C(c2c[nH]c3ccccc23)N(C)C(=O)C1c1c[nH]c2ccccc12 (stereo not given)', '> 100 µM'),
  ('COCn1cnc2c(=O)n(-c3ccc(OC)cc3)c(=S)n(-c3ccc(OC)cc3)c21', '> 100 µM'),
  ('CN(C)CCNC(=O)c1cccc2[nH]c(-c3cccnc3)nc12', '> 100 µM');

In one line, give reported TGI of the entry C=C1C(=O)O[C@H]2[C@H](OC(C)=O)[C@@H](C)CCC/C(C)=C/CC[C@@]3(C)O[C@@H]3C[C@@H]12 .
28.5 µM

In one line, give reported TGI of the entry Cc1ccc(N=Nc2ccc(N)cc2C)c(S(N)(=O)=O)c1 .
> 100 µM

----------
tested on: HT29 colon; experiment: NCI tumour cell line growth inhibition, 48 h
Measurement Type: TGI

Recorded results for 8 compounds are shown here.
INSERT INTO measurements (compound, tested_on, measurement_type, test_value) VALUES
  ('CC(O)c1ccc[n+](Cc2ccccc2)c1 (stereo unspecified)', 'HT29 colon', 'TGI', '> 400 µM'),
  ('CCCCCCCCCCCCOC1C(C(COC2OC(C3COC(C)(C)O3)C3OC(C)(C)OC23)NC(=O)NS(=O)(=O)c2ccccc2)OC2OC(C)(C)OC21 (stereo unspecified)', 'HT29 colon', 'TGI', '16.4 µM'),
  ('OC(CNCC1CCCO1)Cn1c2ccc(Cl)cc2c2cc(Cl)ccc21 (stereo unspecified)', 'HT29 colon', 'TGI', '3.72 µM'),
  ('CN1CC[C@]2(C)c3cc(O)ccc3CC3CCCC1C32C (stereo partly specified)', 'HT29 colon', 'TGI', '> 100 µM'),
  ('Cc1ccc2c(c1)CC1(Cc3c(C)cccc3C1=O)C2=O (stereo unspecified)', 'HT29 colon', 'TGI', '> 100 µM'),
  ('Oc1cc(-c2ccc(Cl)cc2)cn2c1nc1ccccc12', 'HT29 colon', 'TGI', '> 100 µM'),
  ('CCN1Cc2c(ccc(F)c2C#N)O[C@@H](C)CNC(=O)c2c(N)nn3ccc1nc23', 'HT29 colon', 'TGI', '46.7 µM'),
  ('CCOC(=O)/C(=C\c1cccs1)P(=O)(OCC)OCC', 'HT29 colon', 'TGI', '36.3 µM');

In one line, give reported TGI of the entry CN(C)CC1CCCC(CN(C)C)C1=NOC(=O)c1ccccc1 (stereo unspecified) .
> 100 µM

In one line, give reported TGI of the entry C1CSC(=[N+]2CC[N+](=C3SCCS3)CC2)S1 .
> 100 µM

In one line, give reported TGI of the entry CC(=O)N(C(C)=O)n1c(-c2ccccc2)n[nH]c1=O .
> 100 µM
